Data origin: paper PMC7845594

test system: C. elegans host defense pathway genes; test: nanoString expression of 115 immune- and stress-responsive genes; details: 100 μM LK molecules, 16 h
Param label: returns class 1 when F22B5.4 expression, induction < 2 fold, returns class 0 otherwise, including exact equality.

The following molecules have reported results that may help.
[[record]]
molecule = "CN(C)/N=N/c1ccc(-c2cn(Cc3ccccc3)cn2)cc1"
category = "class 0"

[[record]]
molecule = "CNC(=O)Oc1c(Br)cc2sc(=O)oc2c1Br"
category = "class 1"

[[record]]
molecule = "CCN(CC)/N=N/c1ccc(C(=O)O)cc1"
category = "class 1"

[[record]]
molecule = "COC(=O)/C=C/C(=O)Nc1ccccc1"
category = "class 0"

[[record]]
molecule = "Cc1cc(C2CCCCC2)n(O)c(=O)c1 [Ciclopirox, reference compound]"
category = "class 0"


Please turn your attention to the following entry.
Ask | Criterion: F22B5.4 expression, induction strictly below 2 fold. Is it met by O=c1cc(CNc2ccc(Br)cc2)nc2sccn12 ?
Reply | class 0
